Assay: in vitro
Conditions: human
experimental_readout: viability at 10 µM (%)
Write the value in % as a bare number.

Ask | // fetch viability at 10 µM given entry NC(=O)c1ncn([C@@H]2O[C@H](CO)[C@@H](O)[C@H]2O)n1 [Ribavirin, reference compound]
Reply | 99

* * *

Experiment: in vitro
Details: human
experimental_readout: viability at 24 h, 10 µM

compound	viability at 24 h, 10 µM
O=C(Nc1ccc(I)cc1)N1CCC(n2c(=O)[nH]c3cc(Cl)ccc32)CC1	77%
NC(=O)c1ncn([C@@H]2O[C@H](CO)[C@@H](O)[C@H]2O)n1 [Ribavirin, reference compound]	99%

We now examine a further compound.
Ask | // fetch viability at 24 h, 10 µM given entry O=C(Nc1ccc(I)cc1)N1CCC(n2c(=O)[nH]c3cc(C(F)(F)F)ccc32)CC1
Reply | 94%
